The reported numbers originate from patent US9913858B2.

# RUN_DESCRIPTION: Serum and cerebrospinal fluid bromide concentrations in the sheep trial
# Assay type: in vivo
# ASSAY_SETUP: sheep, cerebrospinal fluid and serum, oral, mean ratio of serum bromide:CSF bromide, sheep, Group 5, bromide prophylactic controls
VALUE_KIND: Kp at 22 days
Give your answer as a number; write no unit.

Name the reported Kp at 22 days value associated with the compound Br [bromide]
0.74
